protocolDetails: Powder dissolution, USP/NF paddle method with HPLC analysis
Format: physicochemical
conditionContext: 90 min; 500 mg in 900 mL water, 37 °C, 75 rpm; mean of 3; trihydrate
reportedProperty: Amoxicillin released in solution Mean (%)

CC1(C)S[C@@H]2[C@H](NC(=O)[C@H](N)c3ccc(O)cc3)C(=O)N2[C@H]1C(=O)O.O.O.O [entry 5, amoxicillin trihydrate]	99.15
CC1(C)S[C@@H]2[C@H](NC(=O)[C@H](N)c3ccc(O)cc3)C(=O)N2[C@H]1C(=O)O.O.O.O [entry 2, amoxicillin trihydrate]	99.15
CC1(C)S[C@@H]2[C@H](NC(=O)[C@H](N)c3ccc(O)cc3)C(=O)N2[C@H]1C(=O)O.O.O.O [entry 1, amoxicillin trihydrate]	99.76
CC1(C)S[C@@H]2[C@H](NC(=O)[C@H](N)c3ccc(O)cc3)C(=O)N2[C@H]1C(=O)O.O.O.O [entry 6, amoxicillin trihydrate]	98.76
CC1(C)S[C@@H]2[C@H](NC(=O)[C@H](N)c3ccc(O)cc3)C(=O)N2[C@H]1C(=O)O.O.O.O [entry 3, amoxicillin trihydrate]	99.44
CC1(C)S[C@@H]2[C@H](NC(=O)[C@H](N)c3ccc(O)cc3)C(=O)N2[C@H]1C(=O)O.O.O.O [entry 4, amoxicillin trihydrate]	99.31

* * *

protocolDetails: Powder dissolution, USP/NF paddle method with HPLC analysis
Type: physicochemical
conditionContext: 15 min; 500 mg in 900 mL water, 37 °C, 75 rpm; replicate #1; trihydrate
reportedProperty: Amoxicillin released in solution #1 (%)

CC1(C)S[C@@H]2[C@H](NC(=O)[C@H](N)c3ccc(O)cc3)C(=O)N2[C@H]1C(=O)O.O.O.O [entry 4, amoxicillin trihydrate]	90.61
CC1(C)S[C@@H]2[C@H](NC(=O)[C@H](N)c3ccc(O)cc3)C(=O)N2[C@H]1C(=O)O.O.O.O [entry 5, amoxicillin trihydrate]	90.98
CC1(C)S[C@@H]2[C@H](NC(=O)[C@H](N)c3ccc(O)cc3)C(=O)N2[C@H]1C(=O)O.O.O.O [entry 3, amoxicillin trihydrate]	100.69

* * *

protocolDetails: Powder dissolution, USP/NF paddle method with HPLC analysis
Format: physicochemical
conditionContext: 30 min; 500 mg in 900 mL water, 37 °C, 75 rpm; mean of 3; trihydrate
reportedProperty: Amoxicillin released in solution Mean (%)

CC1(C)S[C@@H]2[C@H](NC(=O)[C@H](N)c3ccc(O)cc3)C(=O)N2[C@H]1C(=O)O.O.O.O [entry 4, amoxicillin trihydrate]	93.77
CC1(C)S[C@@H]2[C@H](NC(=O)[C@H](N)c3ccc(O)cc3)C(=O)N2[C@H]1C(=O)O.O.O.O [entry 3, amoxicillin trihydrate]	99.18
CC1(C)S[C@@H]2[C@H](NC(=O)[C@H](N)c3ccc(O)cc3)C(=O)N2[C@H]1C(=O)O.O.O.O [entry 2, amoxicillin trihydrate]	99.33

* * *

protocolDetails: Powder dissolution, USP/NF paddle method with HPLC analysis
Assay type: physicochemical
conditionContext: 60 min; 500 mg in 900 mL water, 37 °C, 75 rpm; replicate #2; trihydrate
Procedure: Dissolution analysis of amoxicillin trihydrate powder samples was carried out using the USP/NF paddle method at a rotational speed of 75 rpm. Ultrapure ELGA laboratory water (900 mL) was used as dissolution medium. Media were equilibrated to 37.0±0.5° C. prior to dissolution. […] Samples were collected at 0, 1, 3, 5, 10, 15, 30, 60 and 90 min, filtered through 0.2 μm filters and analyzed by HPLC. […]
reportedProperty: Amoxicillin released in solution #2 (%)

CC1(C)S[C@@H]2[C@H](NC(=O)[C@H](N)c3ccc(O)cc3)C(=O)N2[C@H]1C(=O)O.O.O.O [entry 1, amoxicillin trihydrate]	99.10
CC1(C)S[C@@H]2[C@H](NC(=O)[C@H](N)c3ccc(O)cc3)C(=O)N2[C@H]1C(=O)O.O.O.O [entry 6, amoxicillin trihydrate]	98.85
CC1(C)S[C@@H]2[C@H](NC(=O)[C@H](N)c3ccc(O)cc3)C(=O)N2[C@H]1C(=O)O.O.O.O [entry 5, amoxicillin trihydrate]	99.86
CC1(C)S[C@@H]2[C@H](NC(=O)[C@H](N)c3ccc(O)cc3)C(=O)N2[C@H]1C(=O)O.O.O.O [entry 4, amoxicillin trihydrate]	99.70
CC1(C)S[C@@H]2[C@H](NC(=O)[C@H](N)c3ccc(O)cc3)C(=O)N2[C@H]1C(=O)O.O.O.O [entry 3, amoxicillin trihydrate]	100.41
CC1(C)S[C@@H]2[C@H](NC(=O)[C@H](N)c3ccc(O)cc3)C(=O)N2[C@H]1C(=O)O.O.O.O [entry 2, amoxicillin trihydrate]	99.17
